target-entity: T1, DFNB31_1, Q9P202
T1 sequence (Q9P202 135-233, limits assumed, looked up): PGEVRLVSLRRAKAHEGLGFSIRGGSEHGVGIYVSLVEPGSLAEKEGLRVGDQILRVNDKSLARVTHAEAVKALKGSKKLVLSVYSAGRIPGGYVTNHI
experiment: holdup assay
Set-up: key: below the threshold = too weak to quantify, mostly under pKd 3.1 to 4
condition-details: plain residues with an end cap or a label only (N-terminal biotin on a linker: ado-ado)
Note to self: values exactly at 4 are 1.0. So pKd at or above 4 is 1.0, below is 0.0.

// below: answered binders
[[record]]
binder = "NKSEPFLTWL [WWTR1, Q9GZV5]"
class_assignment = 0.0

[[record]]
binder = "PLATCDETSI [SEMA4F, O95754]"
class_assignment = 1.0

[[record]]
binder = "GTMFLRETSL [GUCY1A2, P33402]"
class_assignment = 1.0

[[record]]
binder = "THREVKFTSL [CD46, P15529]"
class_assignment = 0.0

[[record]]
binder = "SGDGKTSVWI [GJC1, P36383]"
class_assignment = 0.0

[[record]]
binder = "ATKDKKITTV [EXOC4, Q96A65]"
class_assignment = 0.0

[[record]]
binder = "IKLETKKTKL [SLC15A2, Q16348]"
class_assignment = 0.0


Then there is this binder:
QUERY: Given PDSYHRRDFW [U2AF2, P26368] , state whether its pKd is at least 4.
RESULT: 0.0
